experiment: yeast display, Sf9 membrane polyspecificity reagent, FACS + sequencing; frameworks hold sequencing errors
metric: polyreactivity (PSR sort gate)

ordered_residues	reported_value
QDQHVESVGGLVQAGGSLRFSCAASGSTFTRYAMGWYRQAPGKERELVAAIDGGGGSTSYADSVKGRFTISRDNAKNTVYLQMNSLKPEDTAVYYCAAPLDTSSSIFDYWGQGTQVTVSS	low polyreactivity
QVQLVESGGRLVQAGGSLRLSCAASGITQGYYAMGWYRQAPGKERELVAAISYRGGNTYYADSVKGRFTISRDNAKNTVYLQMNSLKPEDTAVYYCNADLGYESGWWSKYDYWGQGTQVTVSS	low polyreactivity
